Biological target: panel of 255 wild-type kinases (Homo sapiens)
Sequence (P48730 whole entry): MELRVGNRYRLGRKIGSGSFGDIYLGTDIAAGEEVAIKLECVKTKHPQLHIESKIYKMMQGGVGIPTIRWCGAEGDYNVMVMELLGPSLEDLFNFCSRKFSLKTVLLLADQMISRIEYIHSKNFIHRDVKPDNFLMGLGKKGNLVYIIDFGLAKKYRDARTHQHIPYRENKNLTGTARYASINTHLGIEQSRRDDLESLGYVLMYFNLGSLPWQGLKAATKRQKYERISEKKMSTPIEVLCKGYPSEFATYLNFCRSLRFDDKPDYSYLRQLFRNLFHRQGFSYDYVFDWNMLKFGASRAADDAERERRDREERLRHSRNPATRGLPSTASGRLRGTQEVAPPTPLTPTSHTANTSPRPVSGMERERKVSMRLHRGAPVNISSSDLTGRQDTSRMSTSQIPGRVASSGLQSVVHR
Experiment: Kinase panel profiling at 1 µmol/L (MSA or IMAP), percentage inhibition
Assay type: biochemical
Conditions: kinase CK1δ; 1 µmol/L single concentration; read-out: %-inhibition at 1 µmol/L, CK1δ
PROPERTY: inhibition at 1 µM (%)

>>> reading("O=C(Nc1cnn2ccc(N3CCC[C@@H]3c3cc(F)ccc3F)nc12)N1CC[C@H](O)C1")
-8
>>> reading("Cn1cnc2c(F)c(Nc3ccc(Br)cc3F)c(C(=O)NOCCO)cc21")
-4
>>> reading("Cc1cc(Nc2ncnc3ccc(NC4=NC(C)(C)CO4)cc23)ccc1Oc1ccn2ncnc2c1")
-2.17
>>> reading("COC(=O)N[C@@H](C)CNc1nccc(-c2cn(C(C)C)nc2-c2cc(Cl)cc(NS(C)(=O)=O)c2F)n1")
20

(A) C[C@H](Nc1ncnc2nc[nH]c12)c1cc2cccc(Cl)c2c(=O)n1-c1ccccc1
(B) CO[C@]1(C(=O)N[C@@H](C)c2ccc(-n3cc(F)cn3)nc2)CC[C@H](c2nc(C)cc(Nc3cc(C)[nH]n3)n2)CC1
(C) Cn1cnc2c(F)c(Nc3ccc(Br)cc3Cl)c(C(=O)NOCCO)cc21
(D) Cc1nc(NC(=O)N2CCC[C@H]2C(N)=O)sc1-c1ccnc(C(C)(C)C(F)(F)F)c1
Ascending by inhibition at 1 µM, please. // format: requested-order list of labels
A, C, B, D
(A: -4.49%, C: -1.44%, B: 0.94%, D: 9%)

Data origin: paper PMC9516332
